All figures here come from paper PMC10397247.

Please provide measured interaction score for the entries that follow.
Molecular target: T1, 4H2619-bH
T1 chain: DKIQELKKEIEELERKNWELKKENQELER
Experiment: two-hybrid library CCNG1;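 note: natural log of median RNA to DNA barcode read ratio; higher means stronger binding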
One number for each entry.

Reference set (5 entries):
>>> value("DENQELEKEIEELERENWELEKKIQELKR [4H1046-bH]")
0.439
>>> value("DENQELEKKIEELKREIWELEKENQELER [4H1347-bH]")
-0.987
>>> value("DKIQELKKEIEELERKNWELKKENQELER [4H2619-bH]")
0.248
>>> value("DKIQELKKEIEELEREIWELEKKNQELKR [4H2568-bH]")
1.65
>>> value("DEIQELEKENEELERENWELEKEIQELER [4H145-bH]")
-0.128

Q: Query (binder): DENQELEKEIEELERKIWELKKKNQELKR [4H1072-bH] ; field requested: interaction score
Result: 1.65
